# SYSTEM_TESTED: pooled human IgG (human IgG1, 2, 3 and 4)
I'd be grateful if you could share measured Enzyme Activity Endpoint Assay: Fc for these entries.
Give the value, in units of ng/µL, as a plain number.

**Q:** Which Enzyme Activity Endpoint Assay: Fc value belongs to PRT-407 (protein) MVTSVWTKGVTPPADFTQGEDVFHAPYVANQGWYDITKTFNGKDDLLCGAATAGNMLHWWFDQNKEYIEAYLKKHPEKQKIIFGDQELLDVRKAINTKGSQKNSELFNYFRDKAFPNLSARRLGVMPDLVLDMFINGYYLNVTKTQTTDVNRTYQEKDKRGGIFDAVFTRGDQSKLLTSRHDFKEKGLKEISDLIKQELTEGKALGLSHTYANVRINHVINLWGADFDSDGNLKAIYVTDSDSNASIGMKKYFVGVNSAGKVAISAKEIKEDNIGAQVLGLFTLSTGQDIWNQTN ?
**A:** 277

**Q:** Another protein: PRT-270 (protein) MVTSVWTKGVTPPTDFIYGEDVLHAPYKAGQGWYDITKLFNGKDDLLCGAATAGNMLHWWFDQNKEQIENYLKKHPEKQKINFNGEQMFDVKEAIDTKDSQLDSKLFEYFLEKAFPNLSTKHLGVFPDHVIDMFINGYRLSLLNHGPTPVKRGSKDPRGGIFDAVFTRGDQSKLLTNRHDLKNKTLKEISDLIKQELTEGKALGISHTYANGRINHVINLWGADFDAEGNLEAIAVTDSDSNASIGMKKYFVGVNSSGKVAISAKEIEEDNIGAQVLGLFTLSTGQDIWNQTN
**A:** 288

**Q:** Try the protein PRT-434 (protein) MSQTEDSESLQRLRDIEDFQAEKKKQNVVYTKWLDGVDVKDHDFRKIVDGNIAYYATPLLNGRGFYDINKDFNRDSDKCAAAVAANMFHYWLDRNRDNVDRFLRQNPEKHGIIELPDGQLKLSDFLNTYESDDGYRDKSKLFDFISNNFNGPVWTDKLLDNYINGYAYNYKYGRTIEDPTKNTSKINFFKEVFNEKILTNNHSIRNQNEFSVLLSEALYTGKAIGLSYGPAGLRHGLGHIISVWGADLDADGNVVAIYVTDSDDKKLTIGDERVGLKRYKISTDDEGRLRLTAYEETHNTGGQIRGLWTLDTGKQAWADYFDKTEQTGTDQAEQ
**A:** 314

**Q:** Would you mind doing PRT-596 (protein) MANQEIRYSEETPSTITSVWTKGVTPPTDFIQNEDVLHAPYIANQGWYDITKTFNGKDDLLCGAATAGNMLHWWFDQNKEQIENYLKKHPEKQKINFNGEQMFDVKEAIDTKDSQTDSALFEYFKDKAFPYLSTKHLGVFPDHVIDMFINGYRLSLTNHGPTPVKRGTKDPRGGIFDAVFTRGDQSKLLTSRHDFKEKTLNEISDLIKKELTEGKALGLSHTYANVRINHVINLWGADFNAEGNLEAIYVTDSDSNASIGMKKYYVGVNSAGKVAISAKEIEGDNIGAQVLGLFTLSTGQDIWNQTNLEHHHHHH as well?
**A:** 348
